- target_or_system: His-TEV-AtPP01 ΔcTP V030 (SEQ ID NO: 374) (Arabidopsis thaliana, UniProt P55826, S305L/Y426V)
- Construct: with cTPs removed; made in house; host or cells: E. coli BL21 (DE3), His GraviTrap, partially purified
- Sequence (P55826 with tags, fused parts or gaps S305L/Y426V): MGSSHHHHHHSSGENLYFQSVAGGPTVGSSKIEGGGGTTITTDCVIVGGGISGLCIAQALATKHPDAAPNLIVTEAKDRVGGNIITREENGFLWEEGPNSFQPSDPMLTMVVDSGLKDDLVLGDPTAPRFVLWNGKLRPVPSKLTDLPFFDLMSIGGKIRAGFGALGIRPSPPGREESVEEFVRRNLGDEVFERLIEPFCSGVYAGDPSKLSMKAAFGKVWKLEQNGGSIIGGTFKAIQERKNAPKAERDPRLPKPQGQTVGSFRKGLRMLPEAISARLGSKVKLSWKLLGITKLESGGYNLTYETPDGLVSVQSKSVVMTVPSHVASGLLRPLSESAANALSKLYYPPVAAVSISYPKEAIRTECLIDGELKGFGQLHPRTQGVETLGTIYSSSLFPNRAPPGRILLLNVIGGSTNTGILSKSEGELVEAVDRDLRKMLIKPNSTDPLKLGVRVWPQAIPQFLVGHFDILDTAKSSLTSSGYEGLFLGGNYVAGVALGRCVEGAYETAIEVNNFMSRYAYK
- measurement_description: PPO fluorescence IC50 assay, partially purified enzyme
- Format: biochemical
pIC50: −log10 of the molar value.
Please mark condition met if the recorded pIC50 is equal to or greater than 8, and condition not met if it falls below.

Worked examples, 3 compounds total:
{"structure_smiles_string": "CCOC(=O)COc1cc(-c2nn(C)c(OC(F)F)c2Cl)c(F)cc1Cl", "class": "condition not met"}
{"structure_smiles_string": "CS(=O)(=O)NC(=O)c1cc(Oc2ccc(C(F)(F)F)cc2Cl)ccc1[N+](=O)[O-]", "class": "condition met"}
{"structure_smiles_string": "C#CCN(C)c1c(C#N)cnn1-c1nn2c(c1Cl)CCCC2", "class": "condition not met"}

Read the next record carefully.
Is pIC50 for `C#CCN1C(=O)COc2cc(F)c(N3C(=O)C4=C(CCCC4)C3=O)cc21` at or above 8?
condition not met

Data origin: patent US20260297542A1
